B1: CASP6 (parent)
chain: TCADRDNLTRRFSDLGFEVKCFND

# Variants of: B1
# method.summary: protein stability index of a GFP-peptide fusion (GPS, HEK-293T) (PSI 1-6); higher = more stable;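 note: lentivirally expressed fusions sorted by FACS into six bins by GFP to DsRed ratio, PSI derived from sequencing read proportions per bin multiplied by bin number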
# test.parameters: c terminus: a fixed tail appended
readout.name: protein stability index
Could you keep your reply to the number by itself?

Guide cases for protein stability index, answers given:
mutant_code=A3Y recorded_result=2.9
mutant_code=N23D recorded_result=3.41
mutant_code=R11S recorded_result=3.57

## Input Indicate the recorded protein stability index value for this variant: L8Y
## Output 2.91

## Input Please indicate protein stability index recorded for L8R
## Output 4.07

## Input Give the value of protein stability index reported for the following: L15D
## Output 3.92

## Input Report measured protein stability index; entry is N7T
## Output 3.52

## Input Provide one value: measured protein stability index of D24C
## Output 2.41
